Tested on: MDR1 (P-gp)
assay details: Efflux ratio of permeability across basolateral to apical side over apical to basolateral side in MDCK-MDR1 cells at 10 uM measured after 2 hrs by LC-MS/MS analysis
Format: ADME, cell-based, Canis lupus familiaris
test context: dog
metric: efflux ratio at 2 h, 10 µM

A. Clc1ccc(Cc2nnc(CCc3c[nH]c4ccccc34)n2CCCc2c[nH]cn2)cc1Cl
B. CS(=O)(=O)c1cccc(Cc2nnc(Cc3c[nH]c4cc(F)ccc34)n2CCCc2c[nH]cn2)c1
Task for the reader: decide whether A or B has the larger efflux ratio at 2 h, 10 µM. Label of pick, please.
A
(A: 26.9, B: 2.5)

Every entry's value here was drawn from ChEMBL document CHEMBL5136959.
